# Target: NR2F6 (Homo sapiens, UniProt P10588)
# Construct: expressed in transfected cells; also transient transfection
# Sequence (P10588 1-404): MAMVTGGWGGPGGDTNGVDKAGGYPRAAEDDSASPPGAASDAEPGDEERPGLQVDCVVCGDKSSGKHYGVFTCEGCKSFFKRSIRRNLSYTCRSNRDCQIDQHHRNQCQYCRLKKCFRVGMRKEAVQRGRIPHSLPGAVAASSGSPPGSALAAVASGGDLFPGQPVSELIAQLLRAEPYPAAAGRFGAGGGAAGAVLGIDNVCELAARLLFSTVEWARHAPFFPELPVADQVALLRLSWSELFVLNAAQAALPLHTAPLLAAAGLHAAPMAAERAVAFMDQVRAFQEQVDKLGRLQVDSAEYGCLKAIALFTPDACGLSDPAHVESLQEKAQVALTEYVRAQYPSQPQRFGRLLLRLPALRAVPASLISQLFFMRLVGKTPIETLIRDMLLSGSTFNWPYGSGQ
# Test protocol: NR2F6 agonist screening, Firefly signal cmpd/DMSO
# Format: cell-based
# Condition label: Table 13; ratio of Firefly in NR2F6 stable clone F4 to pGL4
In plain terms, low Firefly, NR2F6 stable (clone F4)/pGL4, meaning strictly below 9, gives rule met, and everything else gives rule not met.

Recorded results for 4 compounds are shown here.
INSERT INTO assay_data (compound_structure, label) VALUES
  ('COc1ccc2oc(=O)c(S(=O)(=O)c3ccc(C(C)(C)C)cc3)cc2c1', 'rule met'),
  ('COc1ccc(NC(=O)c2ccc3oc(=O)c(S(=O)(=O)c4ccc(Cl)cc4)cc3c2)cc1', 'rule not met'),
  ('CC(C)(C)c1ccc(S(=O)(=O)c2cc3cc(Br)ccc3oc2=O)cc1', 'rule met'),
  ('O=C(NCCc1ccccc1)c1ccc2oc(=O)c(S(=O)(=O)c3ccccc3)cc2c1', 'rule met');

Hello, is Firefly, NR2F6 stable (clone F4)/pGL4 of the following compound strictly smaller than 9? `Cc1cc(S(=O)(=O)c2cc3cc(F)cc(F)c3oc2=O)ccc1F` rule not met

Hello, is Firefly, NR2F6 stable (clone F4)/pGL4 of the following compound strictly smaller than 9? `O=c1oc2ccc(Cl)cc2cc1S(=O)(=O)c1cccc(F)c1` rule met

Hello, is Firefly, NR2F6 stable (clone F4)/pGL4 of the following compound strictly smaller than 9? `Cc1ccc2oc(=O)c(S(=O)(=O)c3cccc(Cl)c3)cc2c1` rule met

----------
# Target: NR2F6 (Homo sapiens, UniProt P10588)
# Construct: expressed in transfected cells; also transient transfection
# Test protocol: NR2F6 agonist screening, Firefly signal cmpd/DMSO
# Assay type: cell-based
# Condition label: 10% FBS; 10 uM
Test readout: Firefly, F4/pGL4 for S/B(F4) > 3
Numbers only.

INSERT INTO measurements (compound, test_readout, assay_result) VALUES
  ('CCCN[C@H]1CS(=O)(=O)C[C@@H]1S(=O)(=O)c1ccc(Cl)cc1', 'Firefly, F4/pGL4 for S/B(F4) > 3', 1.9),
  ('CCCCN[C@H]1CS(=O)(=O)C[C@@H]1S(=O)(=O)c1ccc(Cl)cc1', 'Firefly, F4/pGL4 for S/B(F4) > 3', 3.3),
  ('O=S1(=O)C[C@H](NCCCc2ccccc2)[C@@H](S(=O)(=O)c2ccc(Cl)cc2)C1', 'Firefly, F4/pGL4 for S/B(F4) > 3', 2.2),
  ('CC(C)CCN[C@H]1CS(=O)(=O)C[C@@H]1S(=O)(=O)c1ccc(Cl)cc1', 'Firefly, F4/pGL4 for S/B(F4) > 3', 2.2),
  ('CC(C)OCCCN[C@H]1CS(=O)(=O)C[C@@H]1S(=O)(=O)c1ccc(Cl)cc1', 'Firefly, F4/pGL4 for S/B(F4) > 3', 1.8),
  ('Cc1cccc(CN[C@H]2CS(=O)(=O)C[C@@H]2S(=O)(=O)c2ccc(Cl)cc2)c1', 'Firefly, F4/pGL4 for S/B(F4) > 3', 2.1),
  ('CCC(C)N[C@H]1CS(=O)(=O)C[C@@H]1S(=O)(=O)c1ccc(Cl)cc1 (some centres unmarked)', 'Firefly, F4/pGL4 for S/B(F4) > 3', 1.4);

Field request: Firefly, F4/pGL4 for S/B(F4) > 3 | item: `O=S1(=O)C[C@H](N2CCCCC2)[C@@H](S(=O)(=O)c2ccc(Cl)cc2)C1` 2.5
